Kindly state Antimicrobial Activity (MIC) Gram − Ec for each of the entries shown.
System: E. coli (Ec, ATCC 25922)
Test: microbe, parasite or virus in culture
Type: cell-based, Escherichia coli
Settings: ATCC 25922, 24 h
Where a SMILES comes first, the peptide text is derived from it. Bridges are numbered along the chain shown (N, C = ends). The star is where a group is joined. Lauroyl = CCCCCCCCCCCC(=O)*
Response body: numeric value in µg/mL, unit text excluded.

Entry under test: CCCCCCCCCCCC(=O)N[C@H]1CSSC[C@@H](C(=O)N[C@@H](CCCCN)C(=O)N[C@@H](CC(C)C)C(N)=O)NC(=O)[C@H](CCCCN)NC(=O)[C@H](Cc2c[nH]c3ccccc23)NC(=O)CNC(=O)[C@H](Cc2c[nH]c3ccccc23)NC(=O)[C@H](Cc2c[nH]c3ccccc23)NC(=O)[C@H](CCCCN)NC(=O)[C@H](CCCCN)NC(=O)CNC1=O [Peptide C12-cTurg-2, C12- (CGKKWWGWKC)KL-NH2] (Lauroyl-CGKKWWGWKCKL-NH2; disulfide 1-10) . Its Antimicrobial Activity (MIC) Gram − Ec was 16

Entry under test: CC(C)C[C@H](NC(=O)[C@H](CCCNC(=N)N)NC(=O)[C@@H]1CSSC[C@H](N)C(=O)NCC(=O)N[C@@H](CCCNC(=N)N)C(=O)N[C@@H](CCCNC(=N)N)C(=O)N[C@@H](Cc2c[nH]c3ccccc23)C(=O)NCC(=O)N[C@@H](Cc2c[nH]c3ccccc23)C(=O)N[C@@H](Cc2c[nH]c3ccccc23)C(=O)N[C@@H](CCCNC(=N)N)C(=O)N1)C(N)=O [cTurg-6] (H-CGRRWGWWRCRL-NH2; disulfide 1-10; N-terminus assumed) . Its Antimicrobial Activity (MIC) Gram − Ec was 8

----------
System: A. pullulans (Ap)
Assay: microbe, parasite or virus in culture
Assay type: cell-based, Aurobasidium pollulans
Details: 48 h
Where a SMILES comes first, the peptide text is derived from it. Bridges are numbered along the chain shown (N, C = ends). The star is where a group is joined. Lauroyl = CCCCCCCCCCCC(=O)*; Decanoyl = CCCCCCCCCC(=O)*; Octanoyl = CCCCCCCC(=O)*
Kindly state Antimicrobial Activity (MIC) Fungi Ap for each of the entries shown.
Response body: numeric value in µg/mL, unit text excluded.

Entry under test: CCCCCCCC(=O)N[C@@H](CS)C(=O)NCC(=O)N[C@@H](CCCCN)C(=O)N[C@@H](CCCCN)C(=O)N[C@@H](Cc1c[nH]c2ccccc12)C(=O)N[C@@H](Cc1c[nH]c2ccccc12)C(=O)NCC(=O)N[C@@H](Cc1c[nH]c2ccccc12)C(=O)N[C@@H](CCCCN)C(=O)N[C@@H](CS)C(=O)N[C@@H](CCCCN)C(=O)N[C@@H](CC(C)C)C(N)=O [Peptide C8-Turg-2, C8- CGKKWWGWKC KL-NH2] (Octanoyl-CGKKWWGWKCKL-NH2) . Its Antimicrobial Activity (MIC) Fungi Ap was 32

Entry under test: CCCCCCCCCCCC(=O)N[C@H]1CSSC[C@@H](C(=O)N[C@@H](CCCCN)C(=O)N[C@@H](CC(C)C)C(N)=O)NC(=O)[C@H](CCCCN)NC(=O)[C@H](Cc2c[nH]c3ccccc23)NC(=O)CNC(=O)CNC(=O)[C@@H]2CCCN2C(=O)[C@H](CCCCN)NC(=O)[C@H](CCCCN)NC(=O)CNC1=O [Peptide C12-cTurg-1, C12 -(CGKKPGGWKC)KL-NH2] (Lauroyl-CGKKPGGWKCKL-NH2; disulfide 1-10) . Its Antimicrobial Activity (MIC) Fungi Ap was 32

Entry under test: CCCCCCCCCC(=O)N[C@H]1CSSC[C@@H](C(=O)N[C@@H](CCCCN)C(=O)N[C@@H](CC(C)C)C(N)=O)NC(=O)[C@H](CCCCN)NC(=O)[C@H](Cc2c[nH]c3ccccc23)NC(=O)CNC(=O)CNC(=O)[C@@H]2CCCN2C(=O)[C@H](CCCCN)NC(=O)[C@H](CCCCN)NC(=O)CNC1=O [Peptide C10-cTurg-1, C10 -(CGKKPGGWKC)KL-NH2] (Decanoyl-CGKKPGGWKCKL-NH2; disulfide 1-10) . Its Antimicrobial Activity (MIC) Fungi Ap was 32

The reported numbers originate from paper PMC9696794.
